Measured values drawn from paper PMC8514580 for this set.

target-system: T1, CGH-1_(248–420) H269A (C. elegans, UniProt Q95YF3 248-420, H269A)
T1 construct: Mutant of m1 made with the MutanBEST kit; source: E. coli Gold (DE3), purified (Ni-chelating resin, SEC Superdex 75)
T1 sequence (looked up): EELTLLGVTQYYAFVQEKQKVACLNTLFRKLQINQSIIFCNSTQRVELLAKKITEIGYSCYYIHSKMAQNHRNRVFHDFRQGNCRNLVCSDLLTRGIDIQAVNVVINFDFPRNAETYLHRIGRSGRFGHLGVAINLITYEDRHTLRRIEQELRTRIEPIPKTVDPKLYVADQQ
assay-comment: ITC; ligand (peptide or CAR-1 fragment, 0.5 mM) injected into CGH-1_(248-420) or mutant (0.05 mM) in the cell; 20 °C; Buffer B (20 mM Tris-HCl pH 7.5, 150 mM NaCl); one-binding-site model
study-conditions: both partners purified
pKd: −log10 of the molar value.

binder	pKd
SDEDHNIFDDEFDAANDETFGGGLDNIGENAELENYAT (PATR-1 (Pat1 ortholog), C. elegans, residues 30-67; Printed with free NH2 and COOH ends; also called PATR1_30-67^WT; CePATR-1 peptide; source: synthetic peptide (GL Biochem, Shanghai)) [PATR-1 peptide (CePATR-1_(30–67))]	5.57
